Target: C-X-C chemokine receptor type 4 (CXCR4), endogenous on SupT1 cells (human (endogenous in SupT1), UniProt P61073 1-352)
Assay: flow cytometry on cells; competition with PE-conjugated anti-human CXCR4 antibody clone 1D9 (N-terminus) on 5 x 10^4 SupT1 cells; compounds serially diluted in cold PBS; 90 min at 4 °C; MFI normalized to full stain (100%) and unstained (0%)
Details: one partner purified
Recorded endpoint: IC50

Value of measured IC50 for the entry G protein-coupled receptor 15 ligand (GPR15LG) (ligand, UniProt Q6UWK7 25-81, looked up, also called C10orf99; AP-57) KRRPAKAWSGRRTRLCCHRVPSPNSTNLKGHHVRLCKPCKLEPEPRLWVVPGALPQV : ~12.1 µM

Recorded values, source paper PMC12093852.
